Consider the following compounds; for each one, report its IC50.
target: NDM-1 (Klebsiella pneumoniae); test: MBL inhibition, FC-5 fluorescence assay, NDM-1; format: biochemical; conditions: FC-5 cephalosporin substrate, fluorescence; ranges of obtained pIC50; read-out: pIC50 NDM-1 (converted)
Sequence (C7C422 29-270, looked up, species assumed): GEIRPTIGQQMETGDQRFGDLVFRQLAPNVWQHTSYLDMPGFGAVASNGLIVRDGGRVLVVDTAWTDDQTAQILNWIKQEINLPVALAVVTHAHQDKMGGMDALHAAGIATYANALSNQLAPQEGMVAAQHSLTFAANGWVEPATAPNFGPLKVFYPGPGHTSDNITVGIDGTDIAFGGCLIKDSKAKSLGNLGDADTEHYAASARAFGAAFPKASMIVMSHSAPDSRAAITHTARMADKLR

(Q) Could you tell me which IC50 is on file for C[C@@H](c1cccc2c(-c3ccnc(O)c3)c(C(=O)O)[nH]c12)N1C[C@]2(C[C@@H](CN)C2)OC1=O [IC-18] ?
(A) 0.1 to 1 nM

(Q) Could you tell me which IC50 is on file for CC(OCC1CC[N+](C)(C)CC1)c1cccc2c(-c3ccc(CS(C)(=O)=O)c(F)c3)c(C(=O)[O-])[nH]c12 (stereo not shown) [IC-90] ?
(A) 1 to 10 nM

(Q) Could you tell me which IC50 is on file for C[C@@H](c1cccc2c(N3CCS(=O)(=O)CC3)c(C(=O)O)[nH]c12)N1C[C@]2(C[C@@H](CN)C2)OC1=O [IC-40] ?
(A) > 10 nM

(Q) Could you tell me which IC50 is on file for C[C@@H](c1cccc2c(-c3cncc(O)c3)c(C(=O)O)[nH]c12)N1C[C@]2(C[C@@H](CN)C2)OC1=O [IC-23] ?
(A) 1 to 10 nM

(Q) Could you tell me which IC50 is on file for CC(OCC1CCNCC1)c1cccc2c(-c3ccc(CS(C)(=O)=O)c(F)c3)c(C(=O)O)[nH]c12 (stereo not shown) [IC-89] ?
(A) 0.1 to 1 nM

(Q) Could you tell me which IC50 is on file for CC(c1cnn(C)c1)c1cccc2c(-c3ccc(CS(C)(=O)=O)c(F)c3)c(C(=O)O)[nH]c12 (stereo not shown) [IC-3] ?
(A) 1 to 10 nM

(Q) Could you tell me which IC50 is on file for CC(CC(=O)NCCc1c[nH]cn1)c1cccc2c(-c3ccc(CS(C)(=O)=O)c(F)c3)c(C(=O)O)[nH]c12 (racemic) [IC-104] ?
(A) 1 to 10 nM
